Tested on: E. coli wild-type GFP strain growth, fluorescence, 24 h
test.description: growth inhibition of wild-type GFP E. coli, dose response, h34 mutant RFP, cherry-pick (AID 977624);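 further: wild-type GFP strain co-cultured with humanized h34 ribosome RFP strain in same well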
Results filed as inconclusive are left out. Activity calls are given as the source filed them.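 How the source made its calls: active means compound lowering the normal-ribosome reporter at least twice as much as the humanized-ribosome reporter, growth loss under a set limit; inconclusive means no clear call, values can overlap the other calls; inactive means the rest.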

molecule	AC50
Fc1cccc(Cc2c(-c3ccco3)nc3c4ccccc4ccn23)c1	> 100 µM (inactive)
Cc1ccc(C2NC(=O)c3[nH]nc(-c4ccccc4)c32)cc1 (stereo not given)	> 100 µM (inactive)
O=C(Nc1ccc(F)cc1)N1CCCCN2[C@@H](CO)[C@H](c3ccc(-c4ccncc4)cc3)[C@@H]2C1	> 100 µM (inactive)
COC(=O)c1c(NC(=O)c2ccccc2C(=O)O)sc2c1CCC2	> 100 µM (inactive)
CCC(=O)c1ccc(OCC(=O)Nc2nc(C)cs2)cc1	> 100 µM (inactive)
CC(C)(C)C1CCC(OCC(O)CN2CCN(c3ccccn3)CC2)CC1 (stereo not given)	> 100 µM (inactive)
Clc1ccc(-c2nc3ccc(Br)cn3c2Cc2ccsc2)cc1	> 100 µM (inactive)
O=C(Nc1ccc2nc3n(c(=O)c2c1)CCCCC3)c1c(F)ccc([N+](=O)[O-])c1F	> 100 µM (inactive)
CCC(=O)Nc1sc(Cc2ccc3c(c2)OCO3)c(C)c1C(N)=O	> 100 µM (inactive)
Cc1ccc(S(=O)(=O)NCc2c(-c3ccccc3)noc2C)cc1	> 100 µM (inactive)

###

Tested on: E. coli wild-type GFP strain growth, fluorescence, 24 h
test.description: growth inhibition of wild-type GFP E. coli, dose response, h34 mutant RFP, cherry-pick (AID 977624);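 further: wild-type GFP strain co-cultured with humanized h34 ribosome RFP strain in same well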
Inconclusive results are not listed. Activity calls are given as the source filed them.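 The calls were made as follows: active = compound lowering the normal-ribosome reporter at least twice as much as the humanized-ribosome reporter, growth loss under a set limit; inconclusive = no clear call, values can overlap the other calls; inactive = the rest.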

compound	AC50
Nc1cc([N+](=O)[O-])ccc1Nc1ccc(O)cc1	> 100 µM (inactive)
COc1ccc(-c2nc(NC(C)=O)sc2-c2ccccc2)cc1	> 100 µM (inactive)
Cc1ccc(NS(=O)(=O)c2cc(C(=O)N3CCc4ccccc4C3)ccc2Cl)cc1	> 100 µM (inactive)
COc1ccccc1Cn1c(=S)[nH]c2ccc(F)cc2c1=O	> 100 µM (inactive)
NC(=O)c1sc2nnc(-c3ccccc3)c(-c3ccccc3)c2c1N	> 100 µM (inactive)
COc1ccc(NC(=O)Nc2cccc3c2O[C@H](CN(C)S(=O)(=O)c2ccc(Cl)cc2)[C@H](C)CN([C@@H](C)CO)C3=O)cc1	> 52 µM (inactive)
Cc1n[nH]c(C)c1Sc1ccccc1[N+](=O)[O-]	> 100 µM (inactive)
COc1ccc(NC(=O)CN(c2ccccc2)S(=O)(=O)c2ccccc2)c(OC)c1	> 100 µM (inactive)
CCOC(=O)c1nc(S(C)(=O)=O)ncc1Cl	> 100 µM (inactive)
C[C@H](CO)N1C[C@H](C)[C@H](CN(C)C(=O)CCCN(C)C)OCCCC[C@H](C)Oc2ccc(NC(=O)Nc3cccc4ccccc34)cc2C1=O	> 100 µM (inactive)
Cc1ccc(-n2nc(C)c3c(C)c(CCC(=O)O)c(C)nc32)cc1C	> 100 µM (inactive)
CCCCC(=O)N1CCN(c2nc3ccc(Br)cc3s2)CC1	> 100 µM (inactive)
O=S(=O)(c1ccccc1)N1C[C@H]2[C@@H](c3ccccc31)[C@@H](CO)N2Cc1ccccc1	> 100 µM (inactive)
Cc1ccc(C2(c3noc(CN(C)Cc4cccnc4)n3)CCCC2)cc1	> 100 µM (inactive)
Cc1cc(OCCCCOc2ccc(S(N)(=O)=O)c(C)c2)ccc1S(N)(=O)=O	> 100 µM (inactive)
Cc1ccc(NC(=O)C2CCN(S(=O)(=O)c3ccc4c(c3)NC(=O)CO4)CC2)cc1	> 100 µM (inactive)
CC(NCc1ccc(S(N)(=O)=O)cc1)C(=O)Nc1cc([N+](=O)[O-])ccc1Cl (stereo unspecified)	> 100 µM (inactive)
O=C(Nc1cccc(O)c1)c1cc(-c2ccccc2Cl)on1	> 100 µM (inactive)
Cc1cc(Br)ccc1SCC(=O)OCC(=O)NCc1ccco1	> 100 µM (inactive)
COc1ccc(C(CC(=O)c2ccc(O)cc2)S(=O)(=O)c2ccc(C)cc2)cc1 (stereo unspecified)	> 100 µM (inactive)
COc1cccc2c1Oc1cc([N+](=O)[O-])cc(N(C)C(C)=O)c1C=C2	> 100 µM (inactive)
